Target: PI3K-alpha (Homo sapiens, UniProt P42336)
Sequence (P42336 whole entry, species assumed): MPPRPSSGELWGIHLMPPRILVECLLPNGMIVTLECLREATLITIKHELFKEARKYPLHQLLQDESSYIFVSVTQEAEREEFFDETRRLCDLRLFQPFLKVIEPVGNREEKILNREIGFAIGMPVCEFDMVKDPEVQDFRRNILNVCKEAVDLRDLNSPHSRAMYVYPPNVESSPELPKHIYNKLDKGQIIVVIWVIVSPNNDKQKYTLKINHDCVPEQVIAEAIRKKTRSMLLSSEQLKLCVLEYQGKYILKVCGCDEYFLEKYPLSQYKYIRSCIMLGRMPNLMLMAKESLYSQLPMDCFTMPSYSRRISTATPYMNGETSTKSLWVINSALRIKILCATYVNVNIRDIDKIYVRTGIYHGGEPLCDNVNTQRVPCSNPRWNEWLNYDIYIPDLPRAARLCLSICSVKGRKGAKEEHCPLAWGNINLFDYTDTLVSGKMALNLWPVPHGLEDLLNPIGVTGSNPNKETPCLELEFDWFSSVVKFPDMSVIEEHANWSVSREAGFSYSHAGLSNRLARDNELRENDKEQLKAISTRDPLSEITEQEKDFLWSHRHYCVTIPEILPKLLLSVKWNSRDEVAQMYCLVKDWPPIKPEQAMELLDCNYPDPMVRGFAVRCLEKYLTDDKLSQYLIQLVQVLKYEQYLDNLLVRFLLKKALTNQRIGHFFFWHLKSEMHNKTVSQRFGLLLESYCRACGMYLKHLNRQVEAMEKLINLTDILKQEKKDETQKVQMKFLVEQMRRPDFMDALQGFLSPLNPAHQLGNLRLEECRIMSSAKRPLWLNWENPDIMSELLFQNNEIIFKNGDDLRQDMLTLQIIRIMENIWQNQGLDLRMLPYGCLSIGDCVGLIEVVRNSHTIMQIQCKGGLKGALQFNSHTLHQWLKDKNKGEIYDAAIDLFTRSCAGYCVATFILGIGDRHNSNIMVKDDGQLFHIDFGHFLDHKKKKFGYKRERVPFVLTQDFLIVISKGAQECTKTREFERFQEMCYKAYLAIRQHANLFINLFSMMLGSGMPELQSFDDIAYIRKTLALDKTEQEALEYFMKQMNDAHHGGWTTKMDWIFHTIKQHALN
Sequence (P27986 whole entry partner, species assumed): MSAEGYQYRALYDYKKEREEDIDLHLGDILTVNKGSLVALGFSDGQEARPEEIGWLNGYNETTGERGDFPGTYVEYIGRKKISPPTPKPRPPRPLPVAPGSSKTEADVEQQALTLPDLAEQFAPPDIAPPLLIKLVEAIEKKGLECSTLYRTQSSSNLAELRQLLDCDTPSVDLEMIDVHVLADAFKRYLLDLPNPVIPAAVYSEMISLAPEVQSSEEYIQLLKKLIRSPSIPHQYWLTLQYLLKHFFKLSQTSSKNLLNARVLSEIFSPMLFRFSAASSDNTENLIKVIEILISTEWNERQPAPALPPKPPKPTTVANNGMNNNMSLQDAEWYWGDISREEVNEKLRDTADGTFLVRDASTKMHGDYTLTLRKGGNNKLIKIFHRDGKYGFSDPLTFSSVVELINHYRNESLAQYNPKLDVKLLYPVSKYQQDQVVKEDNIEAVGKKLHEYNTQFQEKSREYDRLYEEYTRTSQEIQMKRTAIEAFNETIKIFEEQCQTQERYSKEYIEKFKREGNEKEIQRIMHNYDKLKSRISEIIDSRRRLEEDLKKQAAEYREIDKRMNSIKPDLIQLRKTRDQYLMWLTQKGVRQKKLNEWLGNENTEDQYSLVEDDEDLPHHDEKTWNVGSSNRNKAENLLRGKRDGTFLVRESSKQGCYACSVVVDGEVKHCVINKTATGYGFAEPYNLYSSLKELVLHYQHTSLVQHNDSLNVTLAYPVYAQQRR
Assay: PI3K-alpha fluorescence polarization assay
Format: biochemical
Conditions: read-out: PI3Kα Avg. IC50
pIC50: −log10 of the molar value.
quantity-name: pIC50

Check out these entries, answers already filled in.
CCn1cc(/C=C2\Oc3ccc(NC(=O)Nc4ccc(C(=O)N5CCN(C)CC5)cc4)cc3C2=O)c2cc(OC)ccc21 9.02
COc1ccc2c(c1)c(/C=C1\Oc3cc(O)ccc3C1=O)c(C)n2CCN1CCCCCC1 7.45
CN1CCN(CCn2cc(/C=C3\Oc4cc(O)cc(O)c4C3=O)c3c(-c4ccc(C(N)=O)cc4)cccc32)CC1 5.30

P: COc1ccc2[nH]c(-c3c(C)nn(C)c3C)c(/C=C3\Oc4ccc(NC(=O)Nc5cccc(C(=O)N(C)CCN(C)C)c5)cc4C3=O)c2c1
Q: COc1ccc2[nH]cc(/C=C3\Oc4ccc(NC(=O)NC(C)C)cc4C3=O)c2c1
### Prompt Could you tell me which of these two has the smaller pIC50 figure? First: P Second: Q Respond using the label that marks the chosen record.
### Response Q
(Q: 5.84, P: 8.10)

a: COc1ccc2c(c1)c(/C=C1\Oc3cc(O)ccc3C1=O)c(C)n2CCCN1CCC(C)CC1
b: CNC(=O)Nc1ccc2c(c1)C(=O)/C(=C/c1c[nH]c3c(C#N)cc(OC)cc13)O2
c: COc1ccc2c(c1)c(/C=C1\Oc3ccc(NC(=O)Nc4ccc(OCCCCN(C)C)cc4)cc3C1=O)c(C)n2CCN1CCN(C)CC1
d: COc1ccc2[nH]c(-c3c(C)nn(C)c3C)c(/C=C3\Oc4ccc(NC(=O)Nc5ccc(C(=O)NCCN(C)C)cc5)cc4C3=O)c2c1
e: CNC(=O)Nc1ccc2c(c1)C(=O)/C(=C/c1c(C3CCC3)n(CCN3CCN(C)CC3)c3ccc(OC)cc13)O2
### Prompt Rank ascending by pIC50. Answer by writing out the labels in the requested order.
### Response b, a, c, e, d

P: COc1ccc2c(c1)c(/C=C1\Oc3cc(O)ccc3C1=O)c(C)n2CCN1CCCC1
Q: CCn1c(C)c(/C=C2\Oc3ccc(NC(=O)Nc4ccc(N(C)CCN(C)C)cc4)cc3C2=O)c2cc(OC)ccc21
R: Cn1cc(/C=C2\Oc3cc(O)cc(O)c3C2=O)c2c(-c3ccc(C(N)=O)cc3)cccc21
### Prompt Thanks in advance: please rank these 3 entries by pIC50, highest to lowest. Put the labels in the requested order and write them down.
### Response Q, P, R
(Q: 8.46, P: 7.31, R: 6.30)

1: CNC(=O)Nc1ccc2c(c1)C(=O)/C(=C/c1c[nH]c3ccc(OC)cc13)O2
2: CNC(=O)Nc1ccc2c(c1)C(=O)/C(=C/c1c(-c3cnn(CC(C)C)c3)[nH]c3ccc(OC)cc13)O2
### Prompt Between 1 and 2 , which one shows the smaller pIC50 number? State your choice using its label.
### Response 1
(1: 7.23, 2: 8.89)
